experiment: Phase 1 single ascending dose (SAD) pharmacokinetics in healthy volunteers; assay type: in vivo, human; details: male, human, plasma, oral, 90 mg, single dose 90 mg Fed; read-out: Tmax, Observed
METRIC: Tmax (h)
Output spec: scalar in h, unitless text.

Challenge: // lookup Tmax for CC(O)c1ccc(CCOc2ccc(CC3SC(=O)NC3=O)cc2)nc1 (stereo not shown) [Leriglitazone]
Response given: 3

====

assay: Phase 1 single ascending dose (SAD) pharmacokinetics in healthy volunteers; assay type: in vivo, human; conditions: male, human, plasma, oral, 270 mg, M3 section; SAD 270 mg fed, n = 5; geometric mean (CV %); read-out: t1/2 (converted)
METRIC: half-life
Hey, just the number and the unit after it is fine.

Challenge: // lookup half-life for CC(=O)c1ccc(CCOc2ccc(CC3SC(=O)NC3=O)cc2)nc1 (stereo not shown)
Response given: 1360 min

====

test: Phase 1 single ascending dose (SAD) pharmacokinetics in healthy volunteers; type: in vivo, human; conditions: male, human, urine, oral; PBPK model input
METRIC: CL renal (mL/min)
Output spec: scalar in mL/min, unitless text.

Challenge: // lookup CL renal for CC(O)c1ccc(CCOc2ccc(CC3SC(=O)NC3=O)cc2)nc1 (stereo not shown)
Response given: 0.55

====

experiment: Phase 1 multiple ascending dose (MAD) pharmacokinetics with CSF collection in healthy volunteers; format: in vivo, human; conditions: male, human, plasma, oral, 270 mg, 270 mg daily, fed, Day 8; read-out: Tmax, Observed
METRIC: Tmax (h)
Output spec: scalar in h, unitless text.

Challenge: // lookup Tmax for CC(O)c1ccc(CCOc2ccc(CC3SC(=O)NC3=O)cc2)nc1 (stereo not shown)
Response given: 4

====

assay: Phase 1 single ascending dose (SAD) pharmacokinetics in healthy volunteers; assay type: in vivo, human; conditions: male, human, plasma, oral, 90 mg, SAD 90 mg fed, n = 3; geometric mean; read-out: AUC
What AUC was measured for each of the following?
Output spec: scalar in ng·h/mL, unitless text.

Challenge: // lookup AUC for CC(O)c1ccc(CCOc2ccc(CC3SC(=O)NC3=O)cc2)nc1 (centres unmarked)
Response given: 121000

Challenge: // lookup AUC for CC(=O)c1ccc(CCOc2ccc(CC3SC(=O)NC3=O)cc2)nc1 (centres unmarked)
Response given: 62200

====

assay: Phase 1 single ascending dose (SAD) pharmacokinetics in healthy volunteers; type: in vivo, human; conditions: male, human, plasma, oral, 270 mg, M3 section; SAD 270 mg fasted, n = 5; geometric mean (CV %); read-out: t1/2 (converted)
METRIC: half-life (h)
Output spec: scalar in h, unitless text.

Challenge: // lookup half-life for CC(=O)c1ccc(CCOc2ccc(CC3SC(=O)NC3=O)cc2)nc1 (stereo not shown) [Compound M3]
Response given: 21.6

====

assay: PBPK model input parameters: physicochemical; details: two values
METRIC: pKa
Enter the number alone.

Challenge: // lookup pKa for CC(O)c1ccc(CCOc2ccc(CC3SC(=O)NC3=O)cc2)nc1 (stereo not shown) [Leriglitazone]
Response given: 4.97

====

assay: Phase 1 multiple ascending dose (MAD) pharmacokinetics with CSF collection in healthy volunteers; format: in vivo, human; conditions: male, human, plasma, oral, 135 mg, 135 mg daily, fed, Day 8; read-out: AUC, Observed
METRIC: AUC (µg·h/mL)
Output spec: scalar in µg·h/mL, unitless text.

Challenge: // lookup AUC for CC(O)c1ccc(CCOc2ccc(CC3SC(=O)NC3=O)cc2)nc1 (stereo not shown)
Response given: 145
